Would you mind telling me the reported growth of each entry?
- Tested on: COLO 205 colon
- Assay overview: NCI-60 one-dose screen, 48 h (100 = growth as untreated, 0 = no growth, -100 = all killed)
- Experimental context: 10 µM unless noted
This is part of a sample that, as a whole, favours compounds with a hit. Of some 83,000 tested, about 20% had one in any assay.
Give a bare numeral; the unit % is implied.

## Input Quick check: growth on COLO 205 colon, item CCN(CC)CCN1C(=O)c2c(c3c4ccccc4[nH]c3c3[nH]c4ccccc4c23)C1=O ?
## Output 75.8

## Input Give growth (COLO 205 colon) of the following compound: O=C(Nc1ccc(F)cc1)Nc1ccc(Cl)c([N+](=O)[O-])c1
## Output 12

## Input Recall the recorded growth for COc1ccc(NC(=O)Nc2ccc(-c3ccc(OC)c(OC)c3)nc2C)cc1 with COLO 205 colon and state it.
## Output 91.9

## Input Record lookup: for COLO 205 colon, what growth belongs to COc1ccc(N)c(S)c1 ?
## Output 84.5

## Input Give recorded growth with COLO 205 colon for the following compound: O=C(O)c1ccc2nc(-c3ccc(OCCCCCOc4ccc(-c5nc6ccc(C(=O)O)cc6[nH]5)cc4)cc3)[nH]c2c1
## Output 8.79

## Input # query: growth | item COc1cc2nc(C(=O)N3CCCCC3)cc(Nc3ccccc3)c2cc1OC | system: COLO 205 colon
## Output 116

## Input Provide the documented growth with COLO 205 colon as the system for OCc1cnccc1NC12CC3CC(CC(C3)C1)C2
## Output 91.1

## Input Request: growth, test system COLO 205 colon, entry O=C(Nc1cccc(-n2ccc3c(NC(=O)c4ccccc4)nccc32)c1)Nc1ccc(Cl)c(C(F)(F)F)c1
## Output -51.6

## Input Enter reported growth observed with COLO 205 colon for COc1ccc(Cn2cc(COc3ccc4c5ccnc(C)c5n(CCCc5ccccc5)c4c3)nn2)cc1
## Output 69.2

## Input Query for COLO 205 colon: what growth does the record show for O=C(O)c1ccc(-c2nn(-c3ccc(C(=O)O)cc3)cc2/C=N/Nc2c(F)c(F)cc(F)c2F)cc1 ?
## Output 111

* * *

- System: SW-620 colon
- Assay overview: NCI-60 one-dose screen, 48 h (100 = growth as untreated, 0 = no growth, -100 = all killed)
- Experimental context: 10 µM unless noted
This is part of a sample that, as a whole, favours compounds with a hit. Of some 83,000 tested, about 20% had one in any assay.
Quantity kind: growth (%)
Return type: number; implicit unit %.

## Input growth for Clc1ccc2c(c1)nnn1c3ncccc3c(Br)c21 ?
## Output 78.9

## Input # input compound: COC(=O)c1oc2c(C(C)=O)c(OCCN3CCCCC3)ccc2c1C ; wanted: its growth
## Output 103

## Input Requested read-out: growth. Entry: COc1ccc(-c2nn(-c3ccc(NC(=O)Nc4cc(C(F)(F)F)cc(C(F)(F)F)c4)cc3)cc2-c2ccncc2)cc1Cl
## Output 19.5

## Input Requested field: growth. Item: CN1CCN(CC(O)COc2c(Br)c(Br)c(Br)c3c2OC(C)(C)C3)CC1 (centres undefined)
## Output 47.3

## Input What growth value was documented for this compound, CCOc1ccc(Cc2nccc3cc(OCC)c(OCC)cc23)cc1OCC ?
## Output 39.1

## Input Please give the measured growth for this compound: COC(=O)/C=C/C(=O)c1cc(C)cc(C)c1O
## Output 110

## Input Query: growth; subject: O=C(O)c1ccc(-n2cc(/C=N/Nc3ccc(Cl)cc3)c(-c3ccc(F)c(F)c3)n2)cc1
## Output 61.3

## Input Query: growth; subject: Nc1nc(Cl)c2c(C(F)(F)F)cn(CC3CCNCC3)c2n1
## Output 22.4

## Input I have this compound here, Nc1ncc(-c2ccc3ncnc(Nc4ccc(F)c(Cl)c4)c3c2)cn1 , and I need its recorded growth.
## Output 66.4

## Input If you can, please state the reported growth value of Cc1nccc2c3ccc(OCc4cn(Cc5ccc(Br)cc5)nn4)cc3n(CCCc3ccccc3)c12 .
## Output 97.8

## Input Fill in: growth of CCn1c(SCC(=O)c2ccc(Br)cc2)nnc1-c1cc2c([nH]c3ccccc32)c(-c2cccc(O)c2)n1 is ___
## Output 94.1

## Input Could you share which growth value was measured for CN(C)CCCOc1c(Br)cc(/C=C/C(=O)N(C)CCc2cc(Br)c(OCCCN(C)C)c(Br)c2)cc1Br ?
## Output 32

## Input Could you tell me which growth is on file for C=C1C(=O)O[C@H]2[C@H]1CC/C(COC(=O)OC/C1=C/CC[C@@]3(C)O[C@H]3[C@H]3OC(=O)[C@@H](CN(C)C)[C@@H]3CC1)=C\CC[C@@]1(C)O[C@@H]21 ?
## Output -56.5

## Input What value of growth has been reported for the following compound? O=C1OC(c2ccc(-c3ccccc3)cc2)=C/C1=C/C=C/c1ccccc1
## Output 97

## Input Need growth, item CC(C)(C)C(=O)Nc1nc2c(s1)CCc1ccn(S(=O)(=O)c3ccccc3)c1-2
## Output 101

## Input Give its growth value. Item: CC(C)C(=O)Nc1nc2c(s1)CCCc1ccn(S(=O)(=O)c3ccccc3)c1-2
## Output 105

## Input May I ask what growth has been recorded for CCN(CC)CCN1C(=O)c2c(c3c4ccccc4[nH]c3c3[nH]c4ccccc4c23)C1=O ?
## Output 46.9

## Input I'd like to know its growth. The compound in question is O=C1/C(=C/c2cccc3cnccc23)Cc2cc(F)ccc21
## Output 101

## Input Name the recorded growth for CCCC(=O)Oc1ccc(/C(=C(\C)c2ccc(OC)cc2)c2ccc(OCCN3CCCCC3)cc2)cc1 .
## Output 87.5
